Assignment: determine reported intrinsic clearance, human liver microsomes for the given molecules.
The answer is to be given in mL/min/kg; state only the numeric part.

Quick one: intrinsic clearance, human liver microsomes for Cc1ccc(S(=O)(=O)Nc2ccc3c(c2)CCCN3C(=O)c2cccs2)cc1C ? 364

Which intrinsic clearance, human liver microsomes is listed for CC(C)c1noc(CNC(=O)N2C[C@H]3C[C@@H](C2)c2cccc(=O)n2C3)n1 ? 7.35

Look at this molecule and give its reported intrinsic clearance, human liver microsomes. Cc1ccc(C)c(-n2c(S)nnc2-c2ccc(O)cc2)c1 5.5

Recorded intrinsic clearance, human liver microsomes for CS(=O)(=O)c1cccc(CNc2nc(Nc3ccc4c(c3)CCC(=O)N4)ncc2C(F)(F)F)c1 , please? 14.2

Given the molecule CC(C)(CNc1cnn(CCO)c1)c1ccccc1 , what is its reported intrinsic clearance, human liver microsomes? 8.4

Can you share its intrinsic clearance, human liver microsomes? I mean this molecule: CCc1[nH]nc(NC2CCC(C(=O)OC)CC2)c1C (stereo unspecified) 523

Given the entry Fc1cc(CCNc2ncnc3sccc23)c2c(c1)COCO2 , report its measured intrinsic clearance, human liver microsomes. 218
